B1: PKD2L1 (parent)
chain: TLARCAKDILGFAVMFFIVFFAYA

- Variants of: B1
- EXPERIMENTAL_DETAILS: protein stability index of a GFP-peptide fusion (GPS, HEK-293T) (PSI 1-6); higher = more stable;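 note: lentivirally expressed fusions sorted by FACS into six bins by GFP to DsRed ratio, PSI derived from sequencing read proportions per bin multiplied by bin number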
- RUN_PARAMETERS: c terminus: a fixed tail appended
A collection of variants and their measured protein stability index
Answer with the value's number alone.

Examples from the recorded data:
QUERY_SEQUENCE | protein stability index
TLARCAKFILGFAVMFFIVFFAYA [D8F] | 2.33
TLARCAKDALGFAVMFFIVFFAYA [I9A] | 2.44
TLARCAKDILGFAVMSFIVFFAYA [F16S] | 1.82
TLARCAKDIMGFAVMFFIVFFAYA [L10M] | 2.61
TLARCAKDILGFAVRFFIVFFAYA [M15R] | 3.16
TLARCAKDILGFAVMFFIVFCAYA [F21C] | 3.17

Qu. Indicate the recorded protein stability index value for this variant: TLARCAKDILGFAVSFFIVFFAYA [M15S]
Ans. 1.33

Qu. Identify the reported protein stability index for the following entry. PLARCAKDILGFAVMFFIVFFAYA [T1P]
Ans. 2.03

Qu. # return recorded protein stability index for entry TLARCAKDILSFAVMFFIVFFAYA [G11S]
Ans. 3.06

Qu. Dear colleague, please send me the reported protein stability index for TLARCAHDILGFAVMFFIVFFAYA [K7H] when you can.
Ans. 3.13
